- Experiment: Metabolic phase I stability in mouse microsomes
- Type: in vitro ADME
- Assay setup: CD-1, mouse microsomes 0.5 mg/mL, NADPH, 37 °C, read-out: MLM t1/2
Property name: half-life at 1 μM (h)
Just the number in h, nothing appended.

Lookup: Look up half-life at 1 μM: CC(C)(C)N1CCN(Cc2cc3nc(-c4cncc5[nH]ccc45)cc(N4CCOCC4)n3n2)CC1 [Compound 54]
Found: 3.3

====

Documented IC50 across a set of molecules
- System under test: PI3Kδ (Homo sapiens)
- Construct: purchased Merck Millipore
- Sequence (P27986 whole entry): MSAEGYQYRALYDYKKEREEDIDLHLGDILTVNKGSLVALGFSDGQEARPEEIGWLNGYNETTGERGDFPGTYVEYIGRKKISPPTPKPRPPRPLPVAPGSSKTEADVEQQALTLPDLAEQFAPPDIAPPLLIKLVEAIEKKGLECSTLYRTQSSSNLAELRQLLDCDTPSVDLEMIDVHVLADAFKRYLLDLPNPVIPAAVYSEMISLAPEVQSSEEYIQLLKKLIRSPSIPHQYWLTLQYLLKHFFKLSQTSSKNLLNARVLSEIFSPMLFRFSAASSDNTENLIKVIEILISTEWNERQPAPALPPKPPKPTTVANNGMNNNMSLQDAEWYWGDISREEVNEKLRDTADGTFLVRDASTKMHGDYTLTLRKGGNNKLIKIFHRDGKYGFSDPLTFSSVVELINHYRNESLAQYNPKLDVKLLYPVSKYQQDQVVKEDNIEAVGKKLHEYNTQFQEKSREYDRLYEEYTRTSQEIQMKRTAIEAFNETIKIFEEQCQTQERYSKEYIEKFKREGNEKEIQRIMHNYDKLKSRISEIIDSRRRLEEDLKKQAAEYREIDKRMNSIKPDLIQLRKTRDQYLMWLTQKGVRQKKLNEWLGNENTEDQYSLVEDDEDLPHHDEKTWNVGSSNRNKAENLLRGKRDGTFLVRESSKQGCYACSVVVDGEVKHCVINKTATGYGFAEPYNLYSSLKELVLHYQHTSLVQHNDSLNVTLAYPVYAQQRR
- Sequence (O00329 whole entry): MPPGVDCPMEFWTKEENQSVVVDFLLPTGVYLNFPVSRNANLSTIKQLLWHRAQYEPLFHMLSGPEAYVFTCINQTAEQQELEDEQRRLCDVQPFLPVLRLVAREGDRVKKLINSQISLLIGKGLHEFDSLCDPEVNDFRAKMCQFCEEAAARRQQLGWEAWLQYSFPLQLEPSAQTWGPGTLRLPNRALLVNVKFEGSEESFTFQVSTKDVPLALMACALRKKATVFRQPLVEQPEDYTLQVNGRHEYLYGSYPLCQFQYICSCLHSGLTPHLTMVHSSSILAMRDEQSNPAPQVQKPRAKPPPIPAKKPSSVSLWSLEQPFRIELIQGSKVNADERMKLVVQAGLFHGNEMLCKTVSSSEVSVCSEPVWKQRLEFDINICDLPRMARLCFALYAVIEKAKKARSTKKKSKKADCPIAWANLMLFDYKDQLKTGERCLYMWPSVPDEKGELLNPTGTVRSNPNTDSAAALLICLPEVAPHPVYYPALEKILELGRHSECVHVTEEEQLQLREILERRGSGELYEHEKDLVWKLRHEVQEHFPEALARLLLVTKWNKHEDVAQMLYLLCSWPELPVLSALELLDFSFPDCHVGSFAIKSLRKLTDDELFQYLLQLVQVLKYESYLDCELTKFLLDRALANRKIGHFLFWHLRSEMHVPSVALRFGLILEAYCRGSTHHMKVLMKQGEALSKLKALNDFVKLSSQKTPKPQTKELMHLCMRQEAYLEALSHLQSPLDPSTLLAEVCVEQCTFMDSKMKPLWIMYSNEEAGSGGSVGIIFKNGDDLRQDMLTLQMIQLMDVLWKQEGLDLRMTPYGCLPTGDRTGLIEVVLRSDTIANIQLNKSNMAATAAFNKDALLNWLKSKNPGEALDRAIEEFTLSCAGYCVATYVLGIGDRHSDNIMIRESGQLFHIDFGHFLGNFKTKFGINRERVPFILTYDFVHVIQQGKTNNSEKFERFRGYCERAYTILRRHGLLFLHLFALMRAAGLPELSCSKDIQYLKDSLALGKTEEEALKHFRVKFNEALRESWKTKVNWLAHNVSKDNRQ
- Experiment: In vitro kinase inhibition assay for PI3K (ADP-Glo), PI3Kδ
- Assay type: biochemical
- Assay setup: recombinant kinase, mean of two independent experiments, read-out: IC50 PI3Kδ

Use the examples below as a reference point.
{"Chemical string": "Cc1cc2nc(-n3c(C)nc4ccccc43)cc(N3CCOCC3)n2n1", "System under test": "PI3Kδ (Homo sapiens)", "Measured value": "3.56 µM"}
{"Chemical string": "Cc1cc2nc(-c3ccc(N)nc3)cc(N3CCOCC3)n2n1", "System under test": "PI3Kδ (Homo sapiens)", "Measured value": "6.86 µM"}
{"Chemical string": "CCc1nc2ccccc2n1-c1cc(N2CCOCC2)n2nc(C)cc2n1", "System under test": "PI3Kδ (Homo sapiens)", "Measured value": "2.3 µM"}
{"Chemical string": "Cc1cc2nc(-c3cccc4[nH]ncc34)cc(N3CCOCC3)n2n1", "System under test": "PI3Kδ (Homo sapiens)", "Measured value": "3.85 µM"}
{"Chemical string": "Cc1cc2nc(-c3cn[nH]c3)cc(N3CCOCC3)n2n1", "System under test": "PI3Kδ (Homo sapiens)", "Measured value": "12.7 µM"}

Lookup: # get_value(readout= IC50, system= PI3Kδ (Homo sapiens)) for Cc1cc2nc(-c3cccc4[nH]ccc34)cc(N3CCOCC3)n2n1
Found: 0.772 µM

Lookup: Now this one: Cc1cc(Nc2cc(N3CCOCC3)n3nc(C)cc3n2)[nH]n1
Found: 43.6 µM

Lookup: Now this one: CS(=O)(=O)N1CCN(Cc2cc3nc(-c4cccc5[nH]ccc45)cc(N4CCOCC4)n3n2)CC1
Found: 0.4 µM

====

Documented Fold Selectivity α/δ across a set of molecules
- System under test: PI3Kα (Homo sapiens)
- Construct: purchased Carna Biosciences
- Sequence (P42336 whole entry): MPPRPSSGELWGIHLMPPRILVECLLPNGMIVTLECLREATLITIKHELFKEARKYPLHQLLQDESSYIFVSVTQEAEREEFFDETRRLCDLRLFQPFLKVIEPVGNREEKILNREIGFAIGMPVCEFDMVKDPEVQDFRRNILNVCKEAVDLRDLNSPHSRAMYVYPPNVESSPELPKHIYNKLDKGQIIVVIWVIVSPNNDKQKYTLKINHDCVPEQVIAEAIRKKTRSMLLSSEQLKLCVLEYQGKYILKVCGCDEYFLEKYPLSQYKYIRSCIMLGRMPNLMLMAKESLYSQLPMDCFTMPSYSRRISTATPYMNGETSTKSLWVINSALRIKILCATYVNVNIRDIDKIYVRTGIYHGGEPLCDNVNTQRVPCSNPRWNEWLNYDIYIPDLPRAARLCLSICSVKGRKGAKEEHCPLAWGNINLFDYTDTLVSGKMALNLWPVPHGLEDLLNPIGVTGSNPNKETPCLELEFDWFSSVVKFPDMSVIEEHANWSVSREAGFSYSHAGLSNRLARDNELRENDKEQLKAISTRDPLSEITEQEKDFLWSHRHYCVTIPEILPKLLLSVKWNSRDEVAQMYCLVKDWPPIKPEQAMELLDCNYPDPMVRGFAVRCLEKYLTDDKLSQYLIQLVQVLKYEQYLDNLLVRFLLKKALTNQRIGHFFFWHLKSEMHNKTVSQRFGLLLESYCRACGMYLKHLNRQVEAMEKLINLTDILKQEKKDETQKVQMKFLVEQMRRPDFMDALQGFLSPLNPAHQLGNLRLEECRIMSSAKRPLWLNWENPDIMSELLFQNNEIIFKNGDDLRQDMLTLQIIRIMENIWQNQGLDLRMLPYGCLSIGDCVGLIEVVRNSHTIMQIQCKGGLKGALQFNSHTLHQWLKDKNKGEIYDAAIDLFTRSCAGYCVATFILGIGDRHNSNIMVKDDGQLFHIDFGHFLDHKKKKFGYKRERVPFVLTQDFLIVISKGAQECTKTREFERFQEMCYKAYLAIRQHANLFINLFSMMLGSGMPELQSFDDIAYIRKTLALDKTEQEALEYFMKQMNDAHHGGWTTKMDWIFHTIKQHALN
- Sequence (P27986 whole entry partner): as the sequence (P27986 whole entry) above
- Experiment: In vitro kinase inhibition assay for PI3K (ADP-Glo), PI3Kα
- Assay type: biochemical
- Assay setup: ratio of IC50 PI3Kα to IC50 PI3Kδ

Use the examples below as a reference point.
{"Chemical string": "Cc1cc(Nc2cc(N3CCOCC3)n3nc(C)cc3n2)[nH]n1", "Fold Selectivity α/δ": ">1.4"}
{"Chemical string": "COc1ccc(N2CCN(Cc3cc4nc(-c5cccc6[nH]ccc56)cc(N5CCOCC5)n4n3)CC2)cc1", "Fold Selectivity α/δ": 50}

Now look at this entry.
Lookup: Look up Fold Selectivity α/δ: CN1CCN(C2CCN(Cc3cc4nc(-c5cccc6[nH]ccc56)cc(N5CCOCC5)n4n3)CC2)CC1
Found: 301
